Recorded APOE RNA (% UTC) values for a group of substances are listed next.
test system: human APOE RNA; experiment: Dose-dependent inhibition of human APOE RNA in HepG2 cells, electroporation, 50,000 cells per well, RT-PCR normalized to GAPDH (Example 4, Tables 8-10); format: cell-based; details: 205 nM; HepG2, electroporation, 24-hour treatment
Strand notation (5' to 3'): a small letter for the sugar, then the base; units joined by * are phosphorothioate-linked, units joined directly phosphodiester-linked; [ ] holds rarer units or linkages, { } end groups; capitals alone tell only the bases. [ms] = mesyl phosphoramidate linkage; k = constrained ethyl (cEt); [5mC] = 5-methylcytosine; d = 2'-deoxy (DNA)

[
  {
    "substance": "1746806 (k[5mC]*kT*dT[ms]dG[ms]kG*dT[ms]dG[ms]dA[ms]dA[ms]dT*d[5mC]*dT*dT*dT*dA[ms]dT*dT[ms]kA*kA*kA; antisense) [Compound 1746806]",
    "target.or.test.system": "human APOE RNA",
    "APOE RNA (% UTC)": "83 % UTC"
  },
  {
    "substance": "1746802 (k[5mC]*dT[ms]dT[ms]dG[ms]kG*kT*dG[ms]dA[ms]dA[ms]dT*d[5mC]*dT*dT*dT*dA[ms]dT*kT*dA[ms]kA*kA; antisense) [Compound 1746802]",
    "target.or.test.system": "human APOE RNA",
    "APOE RNA (% UTC)": "58 % UTC"
  }
]

Here is the next item to consider.
Item under review: 1746805 (k[5mC]*kT*dT[ms]kG*dG[ms]dT[ms]dG[ms]dA[ms]dA[ms]dT*d[5mC]*dT*dT*dT*dA[ms]dT*dT[ms]kA*kA*kA; antisense) [Compound 1746805] . Reported APOE RNA (% UTC)?
65 % UTC

* * *

system: human APOE RNA; test: Activity in APOE C57BL/6NTac-Apoeem7250 knock-in mice, single ICV bolus, 16 weeks (Example 12); assay type: in vivo; conditions: spinal cord; single ICV bolus 300 μg; 16 weeks post treatment; normalized to mouse Ppia
Strand notation (5' to 3'): a small letter for the sugar, then the base; units joined by * are phosphorothioate-linked, units joined directly phosphodiester-linked; [ ] holds rarer units or linkages, { } end groups; capitals alone tell only the bases. [ms] = mesyl phosphoramidate linkage; e = 2'-O-(2-methoxyethyl) (MOE); [5mC] = 5-methylcytosine; d = 2'-deoxy (DNA)
measured.property: APOE RNA (% control) Spinal Cord
Form entry: value (% control) — number only.

[
  {
    "substance": "1693040: 5-10-5 MOE gapmer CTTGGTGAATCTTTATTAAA, linkages sssosszzzssssssosss (antisense e[5mC]*eT*eT*eGeG*dT*dG[ms]dA[ms]dA[ms]dT*d[5mC]*dT*dT*dT*dA*eTeT*eA*eA*eA) [compound 1693040]",
    "measured.property": "APOE RNA (% control) Spinal Cord",
    "units.text": "% control",
    "meas.value": 71
  }
]

Kindly consider the entry below.
Give the measured APOE RNA (% control) Spinal Cord of 1693042: 5-10-5 MOE gapmer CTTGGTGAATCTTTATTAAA, linkages sssosszzzssssssssss (antisense e[5mC]*eT*eT*eGeG*dT*dG[ms]dA[ms]dA[ms]dT*d[5mC]*dT*dT*dT*dA*eT*eT*eA*eA*eA) [compound 1693042] .
65

* * *

Quick list: APOE RNA (% control) Spinal Cord per entry.
test system: human APOE RNA; assay: Activity in APOE C57BL/6NTac-Apoeem7250 knock-in mice, single ICV bolus, 4 weeks (Example 10); assay type: in vivo; conditions: spinal cord; single ICV bolus 300 μg; 4 weeks post treatment; normalized to mouse Ppia
Strand notation (5' to 3'): a small letter for the sugar, then the base; units joined by * are phosphorothioate-linked, units joined directly phosphodiester-linked; [ ] holds rarer units or linkages, { } end groups; capitals alone tell only the bases. [ms] = mesyl phosphoramidate linkage; e = 2'-O-(2-methoxyethyl) (MOE); k = constrained ethyl (cEt); [5mC] = 5-methylcytosine; d = 2'-deoxy (DNA)
Entry format: amount then unit.

Recorded results for 2 substances are shown here.
[
  {
    "substance": "1766559 (eT*eTeGeGeT*dG[ms]dA[ms]dA[ms]dT*d[5mC]*dT*dT*dT[ms]dA[ms]dT*kTkAeA*eA*e[5mC]; antisense) [Compound 1766559]",
    "meas.value": "81 % control"
  },
  {
    "substance": "1747050 (k[5mC]*kT*kT*dG[ms]dG[ms]kT*dG[ms]dA[ms]dA[ms]dT*d[5mC]*dT*dT*dT*dA[ms]dT*kT*dA[ms]dA[ms]kA; antisense) [Compound 1747050]",
    "meas.value": "45 % control"
  }
]

Please give the measured APOE RNA (% control) Spinal Cord for this substance: 1746793 (k[5mC]*dT[ms]dT[ms]dG[ms]kG*kT*dG[ms]dA[ms]dA[ms]dT*d[5mC]*dT*dT*dT*dA[ms]dT*kT*kA*dA[ms]kA; antisense) [Compound 1746793]
47 % control

Record request: APOE RNA (% control) Spinal Cord value, item 1778111: modified oligonucleotide complementary to human APOE RNA (eA*e[5mC]eTeTeG*kG*dT*dG[ms]dA[ms]dA*dT*d[5mC]*dT*dT*dT*dA[ms]eTeT*eA*eA; antisense) [compound 1778111]
53 % control

For the substance shown here, 1785616 (k[5mC]*dT[ms]dT[ms]kG*dG[ms]kT*dG[ms]dA[ms]dA[ms]dT*d[5mC]*dT*dT*dT*dA*dT[ms]kT*kA*dA[ms]kA; antisense) [Compound 1785616] , give the reported APOE RNA (% control) Spinal Cord.
66 % control

* * *

Tested on: human APOE RNA
Experiment: Dose-dependent inhibition of human APOE RNA in HepG2 cells, electroporation, 50,000 cells per well, RT-PCR normalized to GAPDH (Example 4, Tables 8-10)
Assay type: cell-based
Conditions: HepG2 cells, electroporation, 24-hour treatment, 512 nM, Table 8
Experimental: Modified oligonucleotides selected from the examples above were tested at various doses in HepG2 cells. The modified oligonucleotides were tested in a series of experiments that had the same culture conditions. Each experiment is identified in separate tables below. HepG2 cells plated at a density of 50,000 cells per well were treated by electroporation with various concentrations of modified oligonucleotide as specified in the tables below. […]
Strand notation (5' to 3'): a small letter for the sugar, then the base; units joined by * are phosphorothioate-linked, units joined directly phosphodiester-linked; [ ] holds rarer units or linkages, { } end groups; capitals alone tell only the bases. [ms] = mesyl phosphoramidate linkage; e = 2'-O-(2-methoxyethyl) (MOE); k = constrained ethyl (cEt); [5mC] = 5-methylcytosine; d = 2'-deoxy (DNA)
Some substances, each annotated with its measured APOE RNA (% UTC) 512 nM.
Enter your answer as a number in % UTC; do not include the unit.

[
  {
    "substance": "1778128: modified oligonucleotide complementary to human APOE RNA (eA*e[5mC]eTeTkGkG*dT*dG[ms]dA[ms]dA*dT*d[5mC]*dT*dT*dT*dA[ms]kTeT*eA*eA; antisense) [compound 1778128]",
    "meas.value": 28
  }
]

Could you tell me which APOE RNA (% UTC) 512 nM is on file for 1778129: modified oligonucleotide complementary to human APOE RNA (eA*e[5mC]eTeTeG*kG*dT*dG[ms]dA[ms]dA*dT*d[5mC]*dT*dT*dT*dA[ms]kT*kT*eA*eA; antisense) [compound 1778129] ?
44

Item under review: 1785599: modified oligonucleotide complementary to human APOE RNA (k[5mC]*kT*kT*dG[ms]dG[ms]dT[ms]dG[ms]dA[ms]dA[ms]dT[ms]d[5mC]*dT*dT*dT*dA*dT*kT*kA*dA[ms]kA; antisense) [compound 1785599] . Reported APOE RNA (% UTC) 512 nM?
48

Could you tell me which APOE RNA (% UTC) 512 nM is on file for 1778115: modified oligonucleotide complementary to human APOE RNA (eA*e[5mC]eTeTkGkG*dT*dG[ms]dA[ms]dA*dT*d[5mC]*dT*dT*dT*dA[ms]eTeT*eA*eA; antisense) [compound 1778115] ?
43

* * *

system: human APOE RNA; test: Potency (dose response, ED50) in APOE C57BL/6NTac-Apoeem7250 knock-in mice, 4 weeks (Example 14); type: in vivo; conditions: cortex, ICV dose 300 μg
Strand notation (5' to 3'): a small letter for the sugar, then the base; units joined by * are phosphorothioate-linked, units joined directly phosphodiester-linked; [ ] holds rarer units or linkages, { } end groups; capitals alone tell only the bases. [ms] = mesyl phosphoramidate linkage; e = 2'-O-(2-methoxyethyl) (MOE); k = constrained ethyl (cEt); [5mC] = 5-methylcytosine; d = 2'-deoxy (DNA)
measured.property: APOE RNA (% control) Cortex
I only need the number, in % control, no unit after it.

Fill blank: measured APOE RNA (% control) Cortex of the substance 1778131: modified oligonucleotide complementary to human APOE RNA (eA*e[5mC]eTeTeGkG*dT*dG[ms]dA[ms]dA*dT*d[5mC]*dT*dT*dT*dA[ms]kTkT*eA*eA; antisense) [compound 1778131] is ____.
37

Field request: APOE RNA (% control) Cortex | item: 1746809 (k[5mC]*dT[ms]kT*dG[ms]kG*dT[ms]dG[ms]dA[ms]dA[ms]dT*d[5mC]*dT*dT*dT*dA[ms]dT*dT[ms]kA*kA*kA; antisense) [Compound 1746809]
57

Quick one: APOE RNA (% control) Cortex of 1778130: modified oligonucleotide complementary to human APOE RNA (eA*e[5mC]eTeTeG*kG*dT*dG[ms]dA[ms]dA*dT*d[5mC]*dT*dT*dT*dA[ms]kTkT*eA*eA; antisense) [compound 1778130] ?
74

Field request: APOE RNA (% control) Cortex | item: 1778154: modified oligonucleotide complementary to human APOE RNA (e[5mC]*eT*eTeGeGeT*dG[ms]dA[ms]dA*dT*d[5mC]*dT*dT*dT*dA*dT*kTkAeA*eA; antisense) [compound 1778154]
56

What value of APOE RNA (% control) Cortex has been recorded for this entry: 1757575 (eA*e[5mC]eTeT*kG*kG*dT*dG[ms]dA[ms]dA[ms]dT*d[5mC]*dT*dT*dT*dA[ms]kT*eT*eA*eA; antisense) [Compound 1757575]
51

// query APOE RNA (% control) Cortex value for entry 1785598: modified oligonucleotide complementary to human APOE RNA (k[5mC]*kT*kT*dG[ms]dG[ms]dT[ms]dG[ms]dA[ms]dA[ms]dT*d[5mC]*dT*dT*dT*dA*dT[ms]kT*kA*dA[ms]kA; antisense) [compound 1785598]
37

Which APOE RNA (% control) Cortex value is on record for Aes^mCeoTeoTesGesGksTdsGdzAdzAdzTds^mCdsTdsTdsTdsAdzTksTksAesAe (eA*e[5mC]eTeT*eG*kG*dT*dG[ms]dA[ms]dA[ms]dT*d[5mC]*dT*dT*dT*dA[ms]kT*kT*eA*eA) [Compound No. 1757576] ?
37

I am curious: what APOE RNA (% control) Cortex value has been reported for 1693105: 6-10-4 MOE gapmer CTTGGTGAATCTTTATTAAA, linkages sosssszzzssssszssss (e[5mC]*eTeT*eG*eG*eT*dG[ms]dA[ms]dA[ms]dT*d[5mC]*dT*dT*dT*dA[ms]dT*eT*eA*eA*eA) [compound 1693105] ?
59
